# assayedSystem: Fuc(a1-2)[GalNAc(a1-3)]Gal(b1-4)GlcNAc(b1-3)Gal(b1-4)GlcNAc(b1-3)Gal(b1-4)GlcNAc
# testDescription: glycan array binding signal (z-score within array); higher = stronger binding
# protocolConditions: glycan notation: IUPAC condensed, linker removed
This excerpt belongs to a sample that is enriched for the strongest signals.
Label criterion met when glycan array binding signal (z-score) >= -0.2; otherwise criterion not met.

Please tell me: is the binder CAA (Caragana arborescens) (protein) VAVEFDTFDNPDWDPRTKHIGIDVNSIRSNKTTQWGFWNRQVADVDISYEASSKTLNVSLYYPGESYIVTDVVDLKDILPEWVRIGF at or over -0.2 in terms of glycan array binding signal (z-score)?
criterion not met
